Could you please report measured Activity for the items listed next?
- Tested Target: Mu-type opioid receptor (Rattus norvegicus)
- Assay Comment: Displacement of [3H]DAMGO from mu opioid receptor in rat brain measured total binding per mg of protein at 5 uM
- Type: tissue-based
Answers are plain numbers, in %.

[
  {
    "Cpd Smiles": "Cc1cc(NCC(=O)Nc2ccccc2Cl)c2ccccc2n1",
    "Obs Value": 52
  }
]

Give Activity for each of the items listed below.
1. Cc1cc(NCC(=O)Nc2cc(Cl)ccc2Cl)c2ccccc2n1
2. Cc1cc(N(CC(=O)NC2CCCCC2)CC(=O)NC2CCCCC2)c2ccccc2n1
3. C[C@@H](NC(=O)[C@@H](N)Cc1ccc(O)cc1)C(=O)NCC(=O)N(C)[C@@H](Cc1ccccc1)C(=O)NCCO

[66, 53, 76]

What measured Activity is associated with Cc1ccc(C(=O)Nc2cc(C)nc3ccccc23)cc1 on Mu-type opioid receptor (Rattus norvegicus)?
62

These data points were gathered from ChEMBL document CHEMBL1152513.
